Source of measurements: patent US8008291B2

target-entity: human MC5R (hMC5R) (Homo sapiens)
Construct: purchased Perkin Elmer RBXMC5M400UA
Sequence (P33032 whole entry): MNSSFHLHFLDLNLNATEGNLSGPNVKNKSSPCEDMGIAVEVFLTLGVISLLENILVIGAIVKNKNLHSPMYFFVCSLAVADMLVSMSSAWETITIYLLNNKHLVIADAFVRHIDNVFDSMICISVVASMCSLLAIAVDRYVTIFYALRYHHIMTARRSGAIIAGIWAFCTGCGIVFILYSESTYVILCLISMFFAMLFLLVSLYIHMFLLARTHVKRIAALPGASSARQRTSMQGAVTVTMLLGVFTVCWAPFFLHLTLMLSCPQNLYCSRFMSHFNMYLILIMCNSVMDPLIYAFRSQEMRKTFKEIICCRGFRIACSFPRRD
assay-info: Human MC5R radioligand binding assay (membranes, [125I] NDP-MSH displacement)
condition-context: hMC5R binding; tested as trifluoroacetate or hydrochloride salts, or free bases; read-out: MC5R radioligand IC50
recorded-endpoint: IC50

Inquiry: Give recorded IC50 with human MC5R (hMC5R) (Homo sapiens) for the following molecule: `O=C(NC[C@@H]1CCN(CC(c2ccccc2)c2ccccc2)C(=O)[C@H](CCN2CCCCC2)N1)c1cccc(C(F)(F)F)c1`
Reply text: < 1 µM

Inquiry: Same question, `COc1ccccc1/C=C/C(=O)NC[C@@H]1CCN(CC(c2ccccc2)c2ccccc2)C(=O)[C@H](CCCNC(=N)N)N1` this time
Reply text: < 1 µM

Inquiry: `CC[C@H](CN1CC[C@@H](CNC(=O)c2ccc3cc(Cl)ccc3c2)N[C@@H](CCN)C1=O)c1ccccc1` , same question.
Reply text: < 0.1 µM

Inquiry: Entry to check: `CC[C@H](CN1CC[C@@H](CNC(=O)c2ccc3cc(Cl)ccc3c2)N[C@@H](CCNC(=O)NC(C)C)C1=O)c1ccccc1`
Reply text: < 1 µM

Inquiry: Lookup `N=C(N)NCCC[C@@H]1N[C@H](CNC(=O)c2cc3ccccc3[nH]2)CCN(CC(c2ccccc2)c2ccccc2)C1=O`
Reply text: < 1 µM

Inquiry: For CC1CCCC(C)C1CN1CC[C@@H](CNC(=O)c2ccc3ccccc3c2)N[C@@H](CCCN)C1=O (stereo partly shown) then?
Reply text: < 10 µM

Inquiry: Also check `CC[C@H](CN1CC[C@@H](CNC(=O)c2ccc3cc(Cl)ccc3c2)N[C@@H](CN2CCCCC2)C1=O)c1ccccc1`
Reply text: < 0.1 µM

Inquiry: Also, `O=C(NC[C@@H]1CCN(CC(c2ccccc2)c2ccccc2)C(=O)[C@H](CCCN2CCCC2)N1)c1ccc2ccccc2c1` please.
Reply text: < 0.1 µM

Inquiry: Same for `CC[C@H](CN1CC[C@@H](CNC(=O)c2ccc3cc(Cl)ccc3c2)N[C@@H](CCN2CCCCC2)C1=O)C(C)C`
Reply text: < 0.1 µM

Inquiry: Consider next the molecule `CC(=O)NCCC[C@@H]1N[C@H](CNC(=O)/C=C/c2ccc(C)cc2)CCN(CC(c2ccccc2)c2ccccc2)C1=O` in the same way.
Reply text: < 1 µM

Inquiry: Now give it for `CC[C@@H](CN1CC[C@@H](CNC(=O)c2ccc3ccccc3c2)N[C@@H](CCN2CCCCC2)C1=O)c1ccccc1` too.
Reply text: < 0.1 µM

Inquiry: Check `O=C(/C=C/c1ccc(Br)cc1)NC[C@@H]1CCN(CC(c2ccccc2)c2ccccc2)C(=O)[C@H](CCN2CCCCC2)N1` too.
Reply text: < 0.01 µM

Inquiry: Try this molecule too: `CC[C@@H](CN1CC[C@@H](CNC(=O)c2ccc(Cl)c(Cl)c2)N[C@@H](CCN2CCCCC2)C1=O)c1ccccc1`
Reply text: < 0.1 µM
